These data points were gathered from the array DNA melting data of Ke et al. (doi:10.1101/2024.01.08.574731).

Assay: melting temperature; fluorescence melt of hairpins on a sequencing array, two-state fit, raised by 9.35 °C to match UV melts
Conditions: sodium 0.088 M
Measured Tm, listed per entry.
Measured Quantity: Tm (°C)

{"Seq": "GGTTTCGAAAGAATACC ((((((....))).)))", "Measured Quantity": "Tm", "Unit": "°C", "Result Value": 38}
{"Seq": "GAGCCCCCGAAAGGGCTC (((..(((....))))))", "Measured Quantity": "Tm", "Unit": "°C", "Result Value": 65.4}
{"Seq": "GATCTGAGGCCAGATC ((((((....))))))", "Measured Quantity": "Tm", "Unit": "°C", "Result Value": 47.1}
{"Seq": "GCTGCGGGAAACTGCGGC ((.((.(....).)).))", "Measured Quantity": "Tm", "Unit": "°C", "Result Value": 51.8}
{"Seq": "GATCTATTGTTAGATC ((((((....))))))", "Measured Quantity": "Tm", "Unit": "°C", "Result Value": 42.5}
{"Seq": "GGCGCCTCGAAAGAGGCC (((..(((....))))))", "Measured Quantity": "Tm", "Unit": "°C", "Result Value": 50.5}
{"Seq": "GGCAAAGGAAACTCTGCC ((((.((....)).))))", "Measured Quantity": "Tm", "Unit": "°C", "Result Value": 36.2}
{"Seq": "CGGAGGCGGAAACGCCCG (((..(((....))))))", "Measured Quantity": "Tm", "Unit": "°C", "Result Value": 54.7}
{"Seq": "GTCTACGAAAGTAGAC ((((((....))))))", "Measured Quantity": "Tm", "Unit": "°C", "Result Value": 66.8}
{"Seq": "GCGGATTCGAAAGAACGC (((..(((....))))))", "Measured Quantity": "Tm", "Unit": "°C", "Result Value": 45.1}
{"Seq": "CGCACGGAAACGTCAGCG ((((((....)))..)))", "Measured Quantity": "Tm", "Unit": "°C", "Result Value": 42.7}
{"Seq": "GCGCGTCCGAAAGGACGC (((..(((....))))))", "Measured Quantity": "Tm", "Unit": "°C", "Result Value": 67.3}

* * *

Assay: folding enthalpy; higher = less favourable; fluorescence melt of hairpins on a sequencing array, two-state fit
Conditions: sodium 0.088 M
Output fulfilled for folding enthalpy not less than -20 kcal/mol; output not fulfilled otherwise.

{"Seq": "GCCAGGCGAAAGCATCGC ((.(.((....)).).))", "Label Class": "fulfilled"}
{"Seq": "GATCATAGCATGATC ((((((...))))))", "Label Class": "not fulfilled"}
{"Seq": "GGATAAGGAAACTTATCC (((((((....)))))))", "Label Class": "not fulfilled"}
{"Seq": "GGCGTATCGAAAGATGCC (((..(((....))))))", "Label Class": "not fulfilled"}
{"Seq": "GACATCACGAAAGTGGTC (((..(((....))))))", "Label Class": "fulfilled"}
{"Seq": "GATCCTACAGAGGATC ((((((....))))))", "Label Class": "not fulfilled"}
{"Seq": "GATCGATAGTCGATC ((((((...))))))", "Label Class": "not fulfilled"}
{"Seq": "GGCTTCGAAAGAAGGCC ((((((....))).)))", "Label Class": "not fulfilled"}
{"Seq": "GGATCCGGAAACGAATCC ((((.((....)).))))", "Label Class": "not fulfilled"}
{"Seq": "GCCTACGAAAGTACCGGC ((((((....)))..)))", "Label Class": "not fulfilled"}
{"Seq": "GAGACTGGAAACAGCCTC (((.(((....))).)))", "Label Class": "not fulfilled"}
{"Seq": "GCCGGGCGAAAGCATGGC (((..((....))..)))", "Label Class": "not fulfilled"}
{"Seq": "GATTGGACGAAAGTCATC (((..(((....))))))", "Label Class": "fulfilled"}
{"Seq": "GATCGAGCTTTCGATC ((((((....))))))", "Label Class": "not fulfilled"}
{"Seq": "GGTGGAGGAAACTTCACC ((((.((....)).))))", "Label Class": "not fulfilled"}
{"Seq": "GCGAATACTCGC ((((....))))", "Label Class": "not fulfilled"}
{"Seq": "GAATCGCGAAAGCGTTC (((.(((....))))))", "Label Class": "fulfilled"}
{"Seq": "GCGACGGGAAACCGTCAC (.(((((....))))).)", "Label Class": "fulfilled"}
{"Seq": "GCCCCCGGAAACGAGGGC ((((.((....)).))))", "Label Class": "not fulfilled"}
{"Seq": "GAGACCCGAAAGGGCCTC (((.(((....))).)))", "Label Class": "not fulfilled"}
{"Seq": "CGATCGGAAACGAGATCG ((((((....)))..)))", "Label Class": "not fulfilled"}
{"Seq": "GGGTCCGAAAGGATCCC ((((((....))).)))", "Label Class": "not fulfilled"}
{"Seq": "GGACTACGAAAGTATTCC (((.(((....))).)))", "Label Class": "not fulfilled"}
{"Seq": "GCCCCAGGAAACCAGGGC ((((..(....)..))))", "Label Class": "not fulfilled"}

* * *

Assay: folding enthalpy; higher = less favourable; fluorescence melt of hairpins on a sequencing array, two-state fit
Conditions: sodium 0.088 M
Entries and their folding enthalpy

{"Seq": "GCCATCGAAAGATCTGGC ((((((....)))..)))", "folding enthalpy / kcal/mol": -25.9}
{"Seq": "GTGATAGGAAACTACCAC (((.(((....))).)))", "folding enthalpy / kcal/mol": -27.3}
{"Seq": "GGTAGCGGAAACGCTATC (.(((((....))))).)", "folding enthalpy / kcal/mol": -29.2}
{"Seq": "GGCTATCGAAAGATTGCC (((.(((....))).)))", "folding enthalpy / kcal/mol": -41.3}
{"Seq": "GATCAACTCTTTGATC ((((((....))))))", "folding enthalpy / kcal/mol": -37.5}
{"Seq": "GATCTTAGCAAAGATC ((((((....))))))", "folding enthalpy / kcal/mol": -30.9}
{"Seq": "GCTCCCGAAAGGGAAGC ((((((....))).)))", "folding enthalpy / kcal/mol": -31.8}
{"Seq": "GGGGACGAAAGTCCACCC ((((((....)))..)))", "folding enthalpy / kcal/mol": -11.2}
{"Seq": "GTAAGGGGAAACCCTCAC ((.((((....)))).))", "folding enthalpy / kcal/mol": -13.7}
{"Seq": "GGTCTTCCGAAAGGAACC (((..(((....))))))", "folding enthalpy / kcal/mol": -10.5}
{"Seq": "CGAACTCGGAAACGATCG (((..(((....))))))", "folding enthalpy / kcal/mol": -16.3}
{"Seq": "GCGTTGAAACGC ((((....))))", "folding enthalpy / kcal/mol": -20.8}

* * *

Assay: folding enthalpy; higher = less favourable; fluorescence melt of hairpins on a sequencing array, two-state fit
Settings: sodium 0.088 M
Outcome: 1 for folding enthalpy of at least -100 kJ/mol; -1 for anything lower.

{"Seq": "GATCTTCATAAGATC ((((((...))))))", "Label Class": -1}
{"Seq": "GATCTAATGGTAGATC ((((((....))))))", "Label Class": -1}
{"Seq": "GATCCCGTTTGGGATC ((((((....))))))", "Label Class": -1}
{"Seq": "GCGACCACGAAAGTGCGC (((..(((....))))))", "Label Class": 1}
{"Seq": "GATCACATGTGTGATC ((((((....))))))", "Label Class": -1}
{"Seq": "GACACCGGAAACGGTACC (..((((....))))..)", "Label Class": 1}
{"Seq": "GATCGATTGGTCGATC ((((((....))))))", "Label Class": -1}
{"Seq": "GCATGCGCGAAAGCGTGC (((..(((....))))))", "Label Class": 1}
{"Seq": "TCAACGAAAGTTGA (((((....)))))", "Label Class": 1}
{"Seq": "GCTTGCGAAAGCAGAGC ((((((....))).)))", "Label Class": 1}
{"Seq": "ACCGAGAAATCGGT (((((....)))))", "Label Class": 1}
{"Seq": "CGAATGCGGAAACGCTCG (((..(((....))))))", "Label Class": 1}
{"Seq": "GTCTTAGGAAACTAAGGC (.(((((....))))).)", "Label Class": -1}
{"Seq": "GATCATCTTGATGATC ((((((....))))))", "Label Class": -1}
{"Seq": "GGCCCGGGAAACCGGACC ((.((((....)))).))", "Label Class": -1}
{"Seq": "GTACAGGGAAACTTGTAC (((((.(....).)))))", "Label Class": -1}
{"Seq": "GCACGTGGAAACACACGC ((..(((....)))..))", "Label Class": 1}
{"Seq": "GGGATCGAAAGATGCCC ((((((....))).)))", "Label Class": -1}
{"Seq": "GATCGCCCCAGCGATC ((((((....))))))", "Label Class": -1}
{"Seq": "GATCTCCGGTGAGATC ((((((....))))))", "Label Class": -1}
{"Seq": "GAAGTCGGAAACGACCTC ((.((((....)))).))", "Label Class": 1}
{"Seq": "GATCCGGTTACGGATC ((((((....))))))", "Label Class": -1}
{"Seq": "GCCGACGAAAGTCCGGC ((((((....))).)))", "Label Class": -1}
{"Seq": "GGCGCCGAAAGGCTAGCC ((((((....)))..)))", "Label Class": 1}
{"Seq": "GCAATCCGAAAGGATGC (((.(((....))))))", "Label Class": -1}
{"Seq": "GCGCAGCGAAAGCTTCGC (((.(((....))).)))", "Label Class": -1}
{"Seq": "GGGCTGCCGAAAGGCCCC (((..(((....))))))", "Label Class": 1}
{"Seq": "GGTAGCGAAAGCTTACC ((((((....))).)))", "Label Class": 1}
{"Seq": "GAACATGGAAACATGTTC (((((((....)))))))", "Label Class": -1}
{"Seq": "GATGCCGAAAGGCAAATC ((((((....)))..)))", "Label Class": 1}
{"Seq": "GGTGGTGGAAACATCACC ((((.((....)).))))", "Label Class": -1}
{"Seq": "GAATCCGAAAGGATATTC ((((((....)))..)))", "Label Class": 1}
{"Seq": "GTTCACGAAAGTGGGAAC ((((((....)))..)))", "Label Class": 1}
{"Seq": "GGCCTGGGAAACCGGGTC (.((.((....)).)).)", "Label Class": -1}
{"Seq": "GCATTCGAAAGAATTTGC ((((((....)))..)))", "Label Class": 1}
{"Seq": "GTAAAGGCGAAAGCCTAC (((..(((....))))))", "Label Class": 1}
{"Seq": "GCAACGGGAAACCGTCGC ((.((((....)))).))", "Label Class": -1}
{"Seq": "GGTCCCCGAAAGGGACC (((.(((....))))))", "Label Class": -1}
{"Seq": "GATCGGCCGCCGATC ((((((...))))))", "Label Class": -1}
{"Seq": "GGCCTAGGAAACCAGGCC (((((.(....).)))))", "Label Class": -1}
{"Seq": "GCTAAATCGAAAGATAGC (((..(((....))))))", "Label Class": 1}
{"Seq": "GAAGCGCCGAAAGGCTTC (((..(((....))))))", "Label Class": 1}
{"Seq": "GTACGTGGAAACGTGTAC ((((..(....)..))))", "Label Class": 1}
{"Seq": "GGCGATCGAAAGATGGCC (((.(((....))).)))", "Label Class": -1}
{"Seq": "GGCGCATCGAAAGATGCC (((..(((....))))))", "Label Class": 1}
{"Seq": "GGAGAGGGAAACCTCTTC (.(((((....))))).)", "Label Class": 1}
{"Seq": "GATCTTTAACAAGATC ((((((....))))))", "Label Class": -1}
{"Seq": "GGCTCCGAAAGGAGGGCC ((((((....)))..)))", "Label Class": 1}
